Tested on: CGS 21680-induced catalepsy
PROTOCOL_DETAILS: Activity on CGS 21680-induced catalepsy
Type: in vivo, mice
APPLIED_CONDITIONS: from total score of test group and control group; 10 mg/kg orally
Attribute: Remission ratio (%)
The answer is to be given in %; state only the numeric part.

Field: example entries. Status: answers known.
Give the measured Remission ratio (%) of Nc1nc(C(=O)N2CCC3CCCCC3C2)cc2nc(-c3ccco3)nn12 (stereo not drawn) .
74

Try this compound too: `COC[C@H]1CCCN1C(=O)c1cc2nc(-c3ccco3)nn2c(N)n1`
70

What about `Nc1nc(C(=O)N2CCC(O)(c3ccccc3)CC2)cc2nc(-c3ccco3)nn12` ?
76

More entries:
I have this compound here, `Nc1nc(C(=O)N2CCCCCC2)cc2nc(-c3ccco3)nn12` , and I need its recorded Remission ratio (%).
66

Query `CC(C)N(Cc1ccn(C)c1)C(=O)c1cc2nc(-c3ccco3)nn2c(N)n1` next
82

Can you check `CC(C)N(Cc1ccccc1)C(=O)c1cc2nc(-c3ccco3)nn2c(N)n1` next?
64

---

Examples of compounds with documented A2A Receptor inhibition rate (%) at 10^−7 mol/L follow.
TARGET_OF_ASSAY: adenosine A2A receptor (Rattus norvegicus, UniProt P30543)
Construct: from tissue; host or cells: rat corpus striatum membrane preparation
Sequence (P30543 whole entry): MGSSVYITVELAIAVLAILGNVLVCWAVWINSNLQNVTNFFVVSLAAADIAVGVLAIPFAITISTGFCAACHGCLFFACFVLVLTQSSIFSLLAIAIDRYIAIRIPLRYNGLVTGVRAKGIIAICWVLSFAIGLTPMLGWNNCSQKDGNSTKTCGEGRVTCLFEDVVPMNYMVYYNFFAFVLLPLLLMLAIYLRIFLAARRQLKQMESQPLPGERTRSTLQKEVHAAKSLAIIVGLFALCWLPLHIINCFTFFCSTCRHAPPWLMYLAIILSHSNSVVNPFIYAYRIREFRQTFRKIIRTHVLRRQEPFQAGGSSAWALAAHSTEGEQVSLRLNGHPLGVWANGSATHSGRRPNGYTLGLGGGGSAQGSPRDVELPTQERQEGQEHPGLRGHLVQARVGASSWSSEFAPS
PROTOCOL_DETAILS: Adenosine A2A receptor binding test (3H-CGS 21680 binding)
APPLIED_CONDITIONS: test compound 10^−7 mol/L; 3H-CGS 21680 binding, rat corpus striatum
Experimental: The test was carried out according to the method of Bruns et al. [Molecular Pharmacology, vol. 29, p. Rat corpus striatum was suspended in an ice-cold 50 mmol/L tris(hydroxymethyl)aminomethane hydrochloride (referred to as “Tris HCl” hereinafter) buffer (pH 7.7) using a Polytron homogenizer (produced by Kinematica Co.). […] The radioactivity on the filter was determined with a liquid scintillation counter (produced by Packard Instrument Co.). […]
Respond numerically; units are % and should not be typed.

Here are 3 compounds together with their reported answers.
Dear colleague, I am looking for the recorded A2A Receptor inhibition rate (%) at 10^−7 mol/L of the following compound: `CC(C)N(Cc1ccn(C)c1)C(=O)c1cc2nc(-c3ccco3)nn2c(N)n1`
62

Check Nc1nc(C(=O)N2CCC3CCCCC3C2)cc2nc(-c3ccco3)nn12 (stereo not shown) too.
71

Next record, please: `Nc1nc(C(=O)N2CCCCCC2)cc2nc(-c3ccco3)nn12`
56

Kindly review the next compound as well.
Value lookup for A2A Receptor inhibition rate (%) at 10^−7 mol/L; key = `Nc1nc(C(=O)N2CCCC2)cc2nc(-c3ccco3)nn12`
75

---

Structures can show the parent of a compound that is named as a salt.
ASSAY_READOUT: melting point

For the compound shown here, `CC(C)(O)CN1CC=C(c2cc3nc(-c4ccco4)nn3c(N)n2)CC1` , give the reported melting point.
197.8 to 198.1 °C

Next:
May I ask what melting point has been recorded for Nc1nc(COc2ccccn2)cc2nc(-c3ccco3)nn12 [Compound 32] ?
229 to 229.2 °C

Please give the result for Nc1nc(/C=C/CNCC2CC2)cc2nc(-c3ccco3)nn12 (as salt: HCl) [Compound 68] too.
263.5 to 264.2 °C

Ok, now CCN1CCN(Cc2ccccc2-c2cc3nc(-c4ccco4)nn3c(N)n2)CC1 (as salt: hydrochloride)
253 to 253.4 °C

What about CC(=O)c1cc2nc(-c3ccco3)nn2c(N)n1 [Compound 38] ?
221.2 to 221.5 °C

Record: Nc1nc(CNCCCN2CCCC2=O)cc2nc(-c3ccco3)nn12 (as salt: hydrochloride) [Compound 47, dihydrochloride]
229.1 to 229.8 °C

Could you do the same for COc1cc(CNCc2ccc(-c3cc4nc(-c5ccco5)nn4c(N)n3)cc2)cc(OC)c1 (as salt: hydrochloride) [Compound 17, monohydrochloride] , please?
224.6 to 225.2 °C

Next compound up: CCNC(=O)c1cc2nc(-c3ccco3)nn2c(N)n1 [Compound 98]
178.5 to 178.9 °C

---

TARGET_OF_ASSAY: adenosine A2A receptor (Rattus norvegicus)
Construct: from tissue; host or cells: rat corpus striatum membrane preparation
PROTOCOL_DETAILS: Adenosine A2A receptor binding test (3H-CGS 21680 binding)
APPLIED_CONDITIONS: read-out: A2A Receptor inhibition rate (%) at 10^−7 mol/L
Parameter: inhibition at 0.1 µM. Scope: all listed entries.
Put your answer as a value accompanied by its unit after it.

Please give the measured inhibition at 0.1 µM for this molecule: `COCCN1CC=C(c2cc3nc(-c4ccco4)nn3c(N)n2)CC1`
98%

Also check `Nc1nc(-c2cccs2)cc2nc(-c3ccco3)nn12`
68%

CC1CCCN(C(=O)c2cc3nc(-c4ccco4)nn3c(N)n2)C1 (stereo not shown) , same question.
60%

Would you kindly repeat that for `CC(C)(O)CCN1CC=C(c2cc3nc(-c4ccco4)nn3c(N)n2)CC1` ?
72%

---

Counter-ions that a name gives are not always drawn.
ASSAY_READOUT: melting point

Illustrative cases are given below, each with its answer.
Value lookup for melting point; key = `COc1ccc(CN(Cc2cc3nc(-c4ccco4)nn3c(N)n2)C(C)=O)cc1OC`
136 to 136.5 °C

Same lookup for `CC(=O)NCCNCc1cc2nc(-c3ccco3)nn2c(N)n1` , please.
190.5 to 190.9 °C

Then `Nc1nc(-c2ccc(CO)cc2)cc2nc(-c3ccco3)nn12` ?
239.6 to 239.9 °C

Would you mind doing `Nc1nc(COc2ccccc2)cc2nc(-c3ccco3)nn12` as well?
247.2 to 247.4 °C

Same for `Nc1nc(-c2csc(NCCN3CCOCC3)n2)cc2nc(-c3ccco3)nn12`
274.7 to 275 °C (dec.)

***
Requested read-out: melting point. Entry: Nc1nc(CN2CCN(CC3CC3)CC2)cc2nc(-c3ccco3)nn12 (as salt: hydrochloride) [Compound 50, dihydrochloride]
270 °C (dec.)

Now the same for `Cc1noc(C)c1-c1cc2nc(-c3ccco3)nn2c(N)n1`
227.8 to 228.5 °C

Another: `CCCCc1cc2nc(-c3ccco3)nn2c(N)n1`
155 to 155.3 °C

Now try `Nc1nc(COc2cccnc2)cc2nc(-c3ccco3)nn12` .
253.5 to 254 °C

---

Overview of reported inhibition at 0.1 µM across a group of molecules:
TARGET_OF_ASSAY: adenosine A2A receptor (Rattus norvegicus)
Construct: from tissue; host or cells: rat corpus striatum membrane preparation
PROTOCOL_DETAILS: Adenosine A2A receptor binding test (3H-CGS 21680 binding)
APPLIED_CONDITIONS: test compound 10^−7 mol/L; 3H-CGS 21680 binding, rat corpus striatum; read-out: A2A Receptor inhibition rate (%) at 10^−7 mol/L
Where a name gives a salt, the structure may show the parent alone.
Note: unit % is implicit; provide only the numeric part.

Use these answered entries as a reference point.
Name the recorded inhibition at 0.1 µM for `Nc1nc(-c2ccccc2)cc2nc(-c3ccco3)nn12` .
65

One more molecule: COc1cc(CNCc2cc3nc(-c4ccco4)nn3c(N)n2)cc(OC)c1 [Compound 43, dihydrochloride]
60

How about `Nc1nc(C(=O)c2ccc(F)cc2)cc2nc(-c3ccco3)nn12` ?
58

Cool, now `Nc1nc(C2CCN(CC3CC3)CC2)cc2nc(-c3ccco3)nn12`
87

Input `CC1CCN(C(=O)c2cc3nc(-c4ccco4)nn3c(N)n2)CC1`
70

Continuing:
Param item = CN(Cc1ccc2c(c1)OCO2)C(=O)c1cc2nc(-c3ccco3)nn2c(N)n1 [Compound 107, monohydrochloride] ; retrieve measured inhibition at 0.1 µM.
71

Next record, please: `CN(Cc1ccnc2ccccc12)C(=O)c1cc2nc(-c3ccco3)nn2c(N)n1`
66

One more molecule: Nc1nc(CNCCc2ccccn2)cc2nc(-c3ccco3)nn12 [Compound 44, dihydrochloride]
56

Param item: `Nc1nc(C(=O)N2CCCCC2)cc2nc(-c3ccco3)nn12`
71

Let us now turn to CC(=O)NCCNCc1ccccc1-c1cc2nc(-c3ccco3)nn2c(N)n1 [Compound 7, monohydrochloride]
64

Further, for `Cc1ncccc1CN(C)C(=O)c1cc2nc(-c3ccco3)nn2c(N)n1` ?
60

Same question for `CCN(Cc1ccccc1)C(=O)c1cc2nc(-c3ccco3)nn2c(N)n1` please.
69

Now the same for COCCN1CCN(Cc2cc3nc(-c4ccco4)nn3c(N)n2)CC1 [Compound 49, dihydrochloride]
89

Please answer likewise for `Nc1nc(-c2cc3nc(-c4ccco4)nn3c(N)n2)cs1`
70

Cool, now Nc1nc(CN2CCN(CC3CC3)CC2)cc2nc(-c3ccco3)nn12 [Compound 50, dihydrochloride]
65

Request: `COc1ccc(CN(C)C(=O)c2cc3nc(-c4ccco4)nn3c(N)n2)cn1`
51

What about `CN(Cc1cccnc1Cl)C(=O)c1cc2nc(-c3ccco3)nn2c(N)n1` ?
59

And what about the molecule `Nc1nc(-c2ccc(CNCCc3ccccn3)cc2)cc2nc(-c3ccco3)nn12` ?
53

Another molecule to check: `Nc1nc(C(=O)c2ccccc2)cc2nc(-c3ccco3)nn12`
66

And what about the molecule CN(Cc1cccc(F)c1)C(=O)c1cc2nc(-c3ccco3)nn2c(N)n1 [Compound 120, monohydrochloride] ?
61

Input `Nc1nc(C#CC2(O)CCCC2)cc2nc(-c3ccco3)nn12`
78

`CN(CCc1ccccn1)C(=O)c1cc2nc(-c3ccco3)nn2c(N)n1` ?
70

Same thing, different molecule: `Nc1nc(/C=C/CNCC2CC2)cc2nc(-c3ccco3)nn12`
96

Check `Nc1nc(CCc2ccccc2)cc2nc(-c3ccco3)nn12` too.
82
